Below are Ki measurements against Prostaglandin E2 receptor EP2 subtype (Homo sapiens, UniProt P43116) drawn from the literature.
Sequence (P43116 whole entry): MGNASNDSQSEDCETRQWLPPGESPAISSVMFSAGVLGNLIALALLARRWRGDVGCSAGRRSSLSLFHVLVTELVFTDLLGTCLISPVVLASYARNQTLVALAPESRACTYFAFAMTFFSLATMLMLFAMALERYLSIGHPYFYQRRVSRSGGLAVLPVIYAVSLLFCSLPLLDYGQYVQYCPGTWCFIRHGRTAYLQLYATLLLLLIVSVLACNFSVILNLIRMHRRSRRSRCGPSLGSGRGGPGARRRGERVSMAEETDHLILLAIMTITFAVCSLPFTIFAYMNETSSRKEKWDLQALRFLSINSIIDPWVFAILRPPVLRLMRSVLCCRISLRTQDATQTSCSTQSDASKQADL
ATTRIBUTE MEASURED: Ki (µM)

Past entries and their recorded results:
> print(dat)
                                   molecule                         system.under.test  value.measured
1  O=C(O)c1ccc(CCN2C(=O)CC[C@@H]2/C=C/[C@@H](O)Cc2ccccc2)cc1  Prostaglandin E2 receptor EP2 subtype (Homo sapiens, UniProt P43116)            2.54
2  CN(CCc1ccccc1)C(=O)NS(=O)(=O)c1ccccc1-c1ccc(CN2C(=O)c3ccccc3CCc3ccccc32)cc1  Prostaglandin E2 receptor EP2 subtype (Homo sapiens, UniProt P43116)              23
3  O=C(O)CCc1ccccc1-c1cccc(-c2ccccc2OCc2ccccc2)c1  Prostaglandin E2 receptor EP2 subtype (Homo sapiens, UniProt P43116)             3.7
4  O=C(CCc1ccccc1-c1ccc(OCCCOc2cccc(CSCCc3ccccc3)c2)cc1)NS(=O)(=O)c1cccs1  Prostaglandin E2 receptor EP2 subtype (Homo sapiens, UniProt P43116)             4.9

[A] Cc1sc(C)c(C(=O)NC2(c3ccc(C(=O)O)cc3)CC2)c1Cc1ccc(C(F)(F)F)cc1
[B] O=C(CCCc1ccccc1-c1ccc(CSCCc2ccccc2)cc1)NS(=O)(=O)c1cccs1
[C] O=C(O)CCCCCCN1C(=O)CC[C@@H]1/C=C/C(O)c1cccc(-c2cccc(Cl)c2)c1 (stereo partly drawn)
[D] C/C(=C/C=C/[C@H]1CCC(=O)N1CCc1ccc(C(=O)O)cc1)CC1CCCC1
[E] O=S(=O)(CCc1ccccc1-c1ccc(CSCCc2ccccc2)cc1)NS(=O)(=O)c1cccs1
Rank descending by Ki. When ranking, write the labels in the order the request describes. C, A, E, B, D
(C: 85 µM, A: 5.9 µM, E: 3 µM, B: 1.8 µM, D: 0.06 µM)

---

Literature roundup of UniProtKB P43116 data, read-out pKi.
pKi: −log10 of the molar value.
ATTRIBUTE MEASURED: pKi

Solved cases (2 shown):
> print(dat)
                                   compound  system.under.test  attribute.measured  value.measured
1              O=C(O)COc1ccc(Cl)cc1C1CCCCC1   UniProtKB P43116                 pKi            5.52
2  CCCC[C@H](O)/C=C/[C@H]1CCC(=O)N1CCc1ccc(C(=O)O)cc1   UniProtKB P43116                 pKi            6.90

[P] CC(CC(=O)O)c1ccccc1-c1csc(-c2ccccc2OCc2ccccc2)c1 (stereo not drawn)
[Q] Cc1sc(C)c(C(=O)N[C@@H](C)c2ccc(C(=O)O)cc2)c1Cc1cccc(C(F)(F)F)c1
Determine, for P and Q , which has the greater value of pKi. Respond with the label that goes with your answer. Q

[a] O=C(O)CCCCCCN1C(=O)CC[C@@H]1/C=C/C(O)c1cccc(C(F)(F)F)c1 (stereo partly drawn)
[b] O=C(O)/C=C/c1ccccc1/C=C/Cc1ccccc1OCc1ccccc1.O=C(O)/C=C/c1ccccc1C/C=C\c1ccccc1OCc1ccccc1
[c] O=C(O)CNc1cccc(CN(Cc2ccc(-n3cccn3)cc2)S(=O)(=O)c2cccnc2)n1
Hey, quick one: sort these by pKi, low to high? Write the labels in rank order as requested. a, b, c

[I] CC/C(C)=C\C=C\[C@H]1CCC(=O)N1CCc1ccc(C(=O)O)cc1
[II] O=C(O)c1ccc(C2(NC(=O)c3cccc4ccn(Cc5ccc(C(F)(F)F)cc5)c34)CC2)cc1
// which entry has the larger pKi value, I or II ? Respond with the label that goes with your answer. I
(I: 6.76, II: 5.10)
